# Test system: Staphylococcus aureus
# test.protocol: microbe, parasite or virus in culture
# study.conditions: ATCC 43300, 18 h, ASSAY_TEST Inhibition of Bacterial Growth, detection method Absorption (OD600), MEDIA CAMHB, plate type 384well, NBS, CORNING #3640
observation.type: MIC (µg/mL)
Give bare numbers, in µg/mL.

Take a look at these entries with their results.
Cc1ccc(CNC(=O)c2nc([N+](=O)[O-])c[nH]2)cc1: 32
Cc1ccc(CCNC(=O)c2ncc([N+](=O)[O-])[nH]2)cc1: 32
CN(Cc1ccc(OC(F)F)cc1)C(=O)c1ncc([N+](=O)[O-])[nH]1: 16

Switching to the query record.
Problem: Given the entry O=C(NCc1cccc(OC(F)(F)F)c1)c1ncc([N+](=O)[O-])[nH]1 , what MIC was observed with Staphylococcus aureus?
Result: 16

---

# System: Acinetobacter baumannii
# test.protocol: Antibacterial activity against Acinetobacter baumannii ATCC 19606 (CO-ADD:GN_034); MIC in CAMBH media using NBS plates, by OD600
# study.conditions: Concentration 32.0 ug.mL-1
observation.type: inhibition

Check out these entries, answers already filled in.
NC(=O)c1ncc([N+](=O)[O-])[nH]1: Average; N=2
Cc1ccc(CCn2cc([N+](=O)[O-])nc2C(N)=O)cc1: Average; N=2
NC(=O)c1nc([N+](=O)[O-])cn1CC1CCCCC1: Average; N=2
CC(=O)OCCn1c(-c2ccccc2)cn2cc([N+](=O)[O-])nc2c1=O: Average; N=2
O=C(NCc1ccc(OC(F)(F)F)cc1)c1ncc([N+](=O)[O-])[nH]1: Average; N=2
O=C(NCc1ccccc1)c1nc([N+](=O)[O-])c[nH]1: Average; N=2
O=C(c1ncc([N+](=O)[O-])[nH]1)N1CCCC1: Average; N=2
CN(CCOC(=O)c1ncc([N+](=O)[O-])[nH]1)C(=O)c1ncc([N+](=O)[O-])[nH]1: Average; N=2

Now let's try a different one.
Problem: // returns reported inhibition for input NC(=O)c1nc([N+](=O)[O-])cn1Cc1ccccn1
Result: Average; N=2

---

# System: Staphylococcus aureus
# test.protocol: Antibacterial activity against Staphylococcus aureus MRSA ATCC 43300 (CO-ADD:GP_020); MIC in CAMBH media, using NBS plates, by OD(600)
# study.conditions: Concentration 32.0 ug.mL-1
observation.type: inhibition

NC(=O)c1ncc([N+](=O)[O-])[nH]1: Average; N=2
CN(C)C(=O)c1ncc([N+](=O)[O-])[nH]1: Average; N=2
CC(=O)OCCn1c(-c2ccccc2)cn2cc([N+](=O)[O-])nc2c1=O: Average; N=2

---

# Test system: Staphylococcus aureus
# test.protocol: microbe, parasite or virus in culture
# study.conditions: ATCC 43300, 18 h, ASSAY_TEST Inhibition of Bacterial Growth, detection method Absorption (OD600), MEDIA CAMHB, plate type 384well, NBS, CORNING #3640
observation.type: MIC

Use these answered entries as a reference point.
Cn1c([N+](=O)[O-])cnc1C(=O)OC1CCCCC1: > 32 µg/mL
CN(Cc1ccccc1)C(=O)c1ncc([N+](=O)[O-])n1C: > 32 µg/mL

Now take the following compound into account.
Problem: Looking for the measured MIC of Cn1c([N+](=O)[O-])cnc1C(=O)NC1CCCCC1 , can you help?
Result: > 32 µg/mL
